Where do the numbers come from? From patent US20250074901A1.

I'd appreciate it if you could supply Emax values for the items below.
- measurementTarget: Kv7.2 (Homo sapiens)
- Construct: expressed in transfected cells
- experimentNotes: Activation of Kv7.2 (in vitro assay, concentration response curve)
- Type: cell-based
- cond: Kv7.2 activation max %
Give bare numbers, in %.

Worked cases, Emax given:
compound | u | Emax
O=C(NCc1ccnc(OC(F)F)c1)N[C@@H]1CC[C@@H]2[C@H]1C2(F)F | % | 62
O=C(NCc1ccnc(OCC(F)CF)c1)NC12CCC(F)(CC1)CC2 (centres unmarked) | % | 47
O=C(NCc1ccnc(OC(F)F)c1)NCC1CC(F)C1 (centres unmarked) | % | 46
O=C(NCc1ccnc(OC(F)F)c1)N[C@H]1C[C@@H]2C[C@H]1[C@H](O)C2 (racemic) | % | 95

Data request: Quick one: give measured Emax for O=C(NCc1ccnc(OC(F)F)c1)NCC(O)C12CC(C1)C2 (centres unmarked)
Data returned: 64
